Data provenance is paper PMC8471001.

testedOn: tyrosinase (EC 1.14.18.1, from mushroom)
procedureSummary: Amperometric biosensor: tyrosinase immobilized on carbon black paste electrode, inhibition of catechol response
Type: biochemical
conditionInfo: 20 µM catechol substrate; 0.1 M phosphate buffer pH 6.8; -0.15 V vs. Ag/AgCl; immobilized tyrosinase
propertyMeasured: pIC50
pIC50 (log units): -log10 of the concentration in mol/L.

| compound | testedOn | pIC50 |
| --- | --- | --- |
| [N-]=[N+]=[N-].[Na+] [sodium azide] | tyrosinase (EC 1.14.18.1, from mushroom) | 2.83 |

In the following, a different compound is considered.
Prompt line: Entry O=C(O)c1ccccc1 [benzoic acid] : reported pIC50 = ?
Response line: 3.92
